Target entity: human FOXO1 (constitutively active form Thr24Ala, Ser256Ala, Ser319Ala) (Homo sapiens, UniProt Q12778, S256A/S319A/T24A)
Construct: expressed in transfected cells; host or cells: HEK293 cells transfected with pcDNA3.1 plasmid
Sequence (Q12778 whole entry T24A/S256A/S319A): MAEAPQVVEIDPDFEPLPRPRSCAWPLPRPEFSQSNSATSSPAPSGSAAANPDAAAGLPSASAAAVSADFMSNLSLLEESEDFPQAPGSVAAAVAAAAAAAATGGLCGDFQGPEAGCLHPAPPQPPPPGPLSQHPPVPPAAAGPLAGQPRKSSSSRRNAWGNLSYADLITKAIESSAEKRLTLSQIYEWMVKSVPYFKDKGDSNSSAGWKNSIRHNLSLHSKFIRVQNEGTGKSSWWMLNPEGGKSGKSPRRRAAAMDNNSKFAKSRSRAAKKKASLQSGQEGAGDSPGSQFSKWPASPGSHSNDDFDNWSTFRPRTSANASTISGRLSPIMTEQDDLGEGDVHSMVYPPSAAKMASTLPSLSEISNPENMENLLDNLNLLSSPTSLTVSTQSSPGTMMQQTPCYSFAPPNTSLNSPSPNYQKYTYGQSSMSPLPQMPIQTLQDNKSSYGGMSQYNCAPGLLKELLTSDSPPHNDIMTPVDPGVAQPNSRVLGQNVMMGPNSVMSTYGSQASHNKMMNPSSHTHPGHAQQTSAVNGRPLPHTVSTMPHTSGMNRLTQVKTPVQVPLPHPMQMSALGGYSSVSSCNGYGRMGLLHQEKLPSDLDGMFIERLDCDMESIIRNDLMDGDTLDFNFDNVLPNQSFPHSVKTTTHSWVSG
Test method notes: FOXO1 inhibitor activity assay: cell-based transcriptional (luciferase) reporter assay in HEK293 cells
Test settings: HEK293 cells transfected with insulin response element firefly luciferase reporter, FOXO1 and Renilla luciferase; 10-point dose response 50 μM to 2.5 nM; 24 hours
Property label: IC50

COc1ccc(C(=O)Nc2cc(-c3cn4ccc(C)cc4n3)[nH]n2)cc1Cl [Compound A-163] : 0.3 to 1 µM
O=C(Nc1cc(-c2nc3ccccc3[nH]2)[nH]n1)c1ccc(N2CCN(CCO)CC2)cc1 [Compound A-181] : < 0.1 µM
Cn1nc(NC(=O)c2ccc(N3CCN(C(=O)CN)CC3)nc2)cc1-c1nc2ccccc2[nH]1 [Compound A-289] : 0.1 to 0.3 µM
COC1CN(c2ccc(C(=O)Nc3cc(-c4nc5cccc(F)c5[nH]4)n(C)n3)cn2)C1 [Compound A-137] : 0.3 to 1 µM
COc1cc(F)c2[nH]c(-c3cc(NC(=O)c4ccc(N5CCN(C)CC5)nc4)nn3C)nc2c1 [Compound A-191] : 0.1 to 0.3 µM
CN1CCN(c2ccc(C(=O)Nc3cc(-c4nc5ccccc5[nH]4)n(C)n3)cn2)CC1 [Compound A-209] : < 0.1 µM
Cn1nc(NC(=O)c2ccc(N3CCNCC3)nc2)cc1-c1nc2ccccc2[nH]1 [Compound A-216] : 0.1 to 0.3 µM
O=C(Nc1cc(-c2nc3ccccc3[nH]2)[nH]n1)c1ccc(N2CC[C@H](O)C2)nc1 [Compound A-54] : 0.3 to 1 µM
O=C(Nc1cc(-c2nc3cc(OC(F)(F)F)ccc3[nH]2)[nH]n1)c1ccc(N2CCC(CO)CC2)nc1 [Compound A-114] : > 1 µM
O=C(Nc1cc(-c2nc3ccccc3[nH]2)[nH]n1)c1ccc(N2CC[C@@H](O)C2)nc1 [Compound A-55] : 0.3 to 1 µM
O=C(Nc1cc(-c2nc3ccccc3[nH]2)[nH]n1)c1ccc(N2C[C@H](O)[C@@H](O)C2)nc1 [Compound A-60] : > 1 µM
COc1ccc(C(=O)Nc2n[nH]c(-c3nc4ccccc4[nH]3)c2Cl)cc1Cl [Compound A-74] : > 1 µM
COc1ccc2[nH]c(-c3cc(NC(=O)c4ccc(N5CCC(CO)CC5)nc4)n[nH]3)nc2c1 [Compound A-109] : < 0.1 µM
CC1CN(c2ccc(C(=O)Nc3cc(-c4nc5ccccc5[nH]4)n(C)n3)cn2)CC(CO)O1 (single isomer, unassigned) [Compound A-295] : < 0.1 µM
O=C(Nc1cc(-c2nc3ccccc3[nH]2)[nH]n1)c1ccc(N2CCS(=O)(=O)CC2)nc1 [Compound A-49] : 0.3 to 1 µM

* * *

IC50 listing for selected molecules.
Target entity: human FOXO1 (constitutively active form Thr24Ala, Ser256Ala, Ser319Ala) (Homo sapiens, UniProt Q12778, S256A/S319A/T24A)
Test method notes: FOXO1 inhibitor activity assay: cell-based transcriptional (luciferase) reporter assay in HEK293 cells
Test settings: HEK293 cells transfected with insulin response element firefly luciferase reporter, FOXO1 and Renilla luciferase; 10-point dose response 50 μM to 2.5 nM; 24 hours
Property label: IC50

Cn1nc(NC(=O)c2ccc(N3CC(CO)C3)nc2)cc1-c1nc2ccccc2[nH]1 : 300 to 1000 nM
O=C(Nc1cc(-c2nc3ccccc3[nH]2)[nH]n1)c1ccc(N2CCC(O)CC2)nc1 : 100 to 300 nM
COc1cc(F)c2[nH]c(-c3cc(NC(=O)c4ccc(N5CCOC(CO)C5)nc4)nn3C)nc2c1 (stereo not shown) : < 100 nM
COCCN1CCN(c2ccc(C(=O)Nc3cc(-c4nc5cc(OC)cc(F)c5[nH]4)n(C)n3)cn2)CC1 : < 100 nM
CC(C)C(=O)N1CCN(c2ccc(C(=O)Nc3cc(-c4nc5ccccc5[nH]4)n(C)n3)cn2)CC1 : 100 to 300 nM
Cn1nc(NC(=O)c2ccc(N3CCC(O)C3)nc2)cc1-c1nc2ccccc2[nH]1 (stereo in doubt) : 300 to 1000 nM
Cn1nc(NC(=O)c2ccc(N3CCC[C@H]3C(=O)O)nc2)cc1-c1nc2cc(F)ccc2[nH]1 : > 1000 nM

* * *

Measured IC50, listed per entry for reference.
Target entity: human FOXO1 (constitutively active form Thr24Ala, Ser256Ala, Ser319Ala) (Homo sapiens, UniProt Q12778, S256A/S319A/T24A)
Test method notes: FOXO1 inhibitor activity assay: cell-based transcriptional (luciferase) reporter assay in HEK293 cells
Test settings: HEK293 cells transfected with insulin response element firefly luciferase reporter, FOXO1 and Renilla luciferase; 10-point dose response 50 μM to 2.5 nM; 24 hours
Property label: IC50

O=C(Nc1cc(-c2nc3cccc(F)c3[nH]2)[nH]n1)c1ccc(N2CCOCC2)nc1 : < 100 nM
CCOC(=O)COc1ccc(C(=O)Nc2cc(-c3nc4ccccc4[nH]3)[nH]n2)cc1Cl : > 1000 nM
C[C@H]1CN(c2ccc(C(=O)Nc3cc(-c4nc5ccccc5[nH]4)n(C)n3)cn2)CCN1 : < 100 nM
O=C(Nc1cc(-c2nc3ccccc3[nH]2)[nH]n1)c1ccc(N2CCC[C@H]2CO)nc1 : 100 to 300 nM
O=C(Nc1cc(-c2nc3ccccc3[nH]2)[nH]n1)c1ccc(N2CC(O)C2)nc1 : > 1000 nM
COCCCOc1ccc(C(=O)Nc2cc(-c3nc4ccccc4[nH]3)[nH]n2)cc1Cl : < 100 nM
COC1CN(c2cnc(C(=O)Nc3cc(-c4nc5ccccc5[nH]4)[nH]n3)cn2)C1 : > 1000 nM
O=C(Nc1cc(-c2nc3cc(Cl)ccc3[nH]2)[nH]n1)c1ccc(OCCO)c(Cl)c1 : 100 to 300 nM

* * *

Target entity: human FOXO1 (constitutively active form Thr24Ala, Ser256Ala, Ser319Ala) (Homo sapiens, UniProt Q12778, S256A/S319A/T24A)
Test method notes: FOXO1 inhibitor activity assay: cell-based transcriptional (luciferase) reporter assay in HEK293 cells
Test settings: HEK293 cells transfected with insulin response element firefly luciferase reporter, FOXO1 and Renilla luciferase; 10-point dose response 50 μM to 2.5 nM; 24 hours
pIC50: −log10 of the molar value.
We begin with a simple list: items and their reported pIC50.
Property label: pIC50

CCOC(=O)[C@H]1CCCN1c1ccc(C(=O)Nc2cc(-c3nc4cc(F)ccc4[nH]3)n(C)n2)cn1 : < 6.00
CC1CN(c2ccc(C(=O)Nc3cc(-c4nc5ccccc5[nH]4)n(C)n3)cn2)CC(CO)O1 (single isomer, unassigned) [Compound A-292] : > 7.00
Cn1nc(NC(=O)c2ccc(N3CCO[C@H](CO)C3)nc2)cc1-c1nc2ccccc2[nH]1 : > 7.00
O=C(Nc1cc(-c2nc3cc(C(F)(F)F)ccc3[nH]2)[nH]n1)c1ccc(N2CCOCC2)nc1 : < 6.00

* * *

Target entity: human FOXO1 (constitutively active form Thr24Ala, Ser256Ala, Ser319Ala) (Homo sapiens, UniProt Q12778, S256A/S319A/T24A)
Test method notes: FOXO1 inhibitor activity assay: cell-based transcriptional (luciferase) reporter assay in HEK293 cells
Test settings: HEK293 cells transfected with insulin response element firefly luciferase reporter, FOXO1 and Renilla luciferase; 10-point dose response 50 μM to 2.5 nM; 24 hours
Property label: IC50

CCOC(=O)[C@@H]1CCCN1c1ccc(C(=O)Nc2cc(-c3nc4cc(F)ccc4[nH]3)n(C)n2)cn1 : > 1000 nM
Cn1nc(NC(=O)c2ccc(N3CC4CCC(C3)N4)nc2)cc1-c1nc2ccccc2[nH]1 : 100 to 300 nM
COC1CN(c2ncc(C(=O)Nc3cc(-c4nc5ccccc5[nH]4)[nH]n3)cn2)C1 : > 1000 nM
O=C(O)CN1CCN(c2ccc(C(=O)Nc3cc(-c4nc5ccccc5[nH]4)[nH]n3)cn2)CC1 : > 1000 nM
Cn1nc(NC(=O)c2ccc(N3CCN(CCO)CC3)cc2)cc1-c1nc2ccccc2[nH]1 : 100 to 300 nM
C[C@H]1CN(c2ccc(C(=O)Nc3cc(-c4nc5ccccc5[nH]4)n(C)n3)cn2)C[C@H](C)N1 : 100 to 300 nM
[2H]C([2H])([2H])OCCN1CCN(c2ccc(C(=O)Nc3cc(-c4nc5ccccc5[nH]4)n(C)n3)cn2)CC1 : 100 to 300 nM
O=C(Nc1cc(-c2nc3cc(Cl)ccc3[nH]2)[nH]n1)c1ccc(N2CCOCC2)nc1 : > 1000 nM
COC1CN(c2ccc(C(=O)Nc3cc(-c4nc5ccccc5[nH]4)n(C)n3)cn2)C1 : 100 to 300 nM
C[C@H]1COCCN1c1ccc(C(=O)Nc2cc(-c3nc4ccccc4[nH]3)n(C)n2)cn1 : 100 to 300 nM
COCCOc1ccc(C(=O)Nc2cc(-c3nc4ccccc4[nH]3)[nH]n2)cc1C#N : 100 to 300 nM
Cn1nc(NC(=O)c2ccc(N3CCN(C(=O)COCCO)CC3)nc2)cc1-c1nc2ccccc2[nH]1 : 300 to 1000 nM
Cn1nc(NC(=O)c2cnc(N3CCC(N4CCOCC4)CC3)nc2)cc1-c1nc2ccccc2[nH]1 : > 1000 nM
Cn1nc(NC(=O)c2ccc(N3CCC(N4CCOCC4)CC3)nc2)cc1-c1nc2ccccc2[nH]1 : 100 to 300 nM
O=C(Nc1cc(-c2nc3ccccc3[nH]2)[nH]n1)c1ccc(N2CCC3(CCCO3)CC2)nc1 : < 100 nM

The origin of these recorded values is patent US20230416228A1.
